Test system: EKVX NSCLC
Assay: NCI tumour cell line growth inhibition, 48 h; in the data active = GI50 below about 0.43 µM; inactive = the rest
Outcome (select one): 1.0 (active), 0.0 (inactive)

N#Cc1c(NCc2ccccc2)nc(NCc2ccccc2)c(C#N)c1-c1ccc(O)cc1	0.0
Cc1ccc2oc(=O)cc(/C(=C3/C=CC=N3)c3ccc[nH]3)c2c1	0.0
N.N.N.N.N.NC(=O)[O-].[Co+3].[I-]	0.0
Oc1ccc(O)c(-c2cn3c(n2)SCC3)c1	0.0
Oc1ccc(Nc2ccc3ccccc3c2)cc1	0.0

Inquiry: I would be grateful if you could indicate the recorded call for CCN1CCC(Nc2ccnc3cc(Cl)ccc23)CC1 .
Reply text: 0.0

Inquiry: Assay outcome for CCCCN1CCCC[C@@H]1C(=O)N[C@H](C(=O)N(C)[C@H](C[C@@H](OC(C)=O)c1nc(C(=O)NC2CCC(C(=O)OC)CC2)cs1)C(C)C)C(C)C (some centres undefined) : what was it?
Reply text: 0.0

Inquiry: Please state the recorded outcome for this compound: O=C1/C=C/[C@@H](O)[C@@H]2C[C@@H](O)C[C@H]2/C=C/CCC[C@H](CCc2cccc3ccccc23)O1
Reply text: 1.0

Inquiry: For this compound, state the assay outcome: COc1cccc(/C=C/C(=O)c2ccc(SC)cc2)c1OC
Reply text: 0.0
